# STUDY_TARGET: PIN8 S55A/S146A (Arabidopsis thaliana, UniProt Q9LFP6, S146A/S55A)
# Sequence (Q9LFP6 whole entry S55A/S146A): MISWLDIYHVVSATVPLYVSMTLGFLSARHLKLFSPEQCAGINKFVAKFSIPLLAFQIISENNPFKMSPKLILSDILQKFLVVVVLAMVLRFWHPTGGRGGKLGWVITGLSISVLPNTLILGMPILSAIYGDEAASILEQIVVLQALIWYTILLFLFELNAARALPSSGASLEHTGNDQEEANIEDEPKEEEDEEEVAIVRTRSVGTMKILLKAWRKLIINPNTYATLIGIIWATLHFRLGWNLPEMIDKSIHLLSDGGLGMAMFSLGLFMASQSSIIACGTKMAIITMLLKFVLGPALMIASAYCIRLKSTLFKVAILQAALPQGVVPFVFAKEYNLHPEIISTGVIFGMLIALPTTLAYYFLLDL
# CONDITION_SUMMARY: Michaelis–Menten fit, read-out: EC50 of peak current response
VALUE_TYPE: pEC50
Answers are plain numbers, as −log10 of the molar value.

Please review the entries below; each comes with its answer.
COMPOUND_SMILES	pEC50
O=C(O)COc1ccc(Cl)cc1Cl	4.42
O=C(O)Cc1c[nH]c2ccccc12	3.47

Turning now to a further compound:
// query Would you mind telling me what pEC50 value was observed for O=C(O)COc1ccc(Cl)cc1 ?
// result 4.09

---

# STUDY_TARGET: PIN8 I51Y (Arabidopsis thaliana, UniProt Q9LFP6, I51Y)
# Sequence (Q9LFP6 whole entry I51Y): as the sequence (Q9LFP6 whole entry S55A/S146A) above, with I51Y, A55S, A146S counted along it
# CONDITION_SUMMARY: Michaelis–Menten fit, read-out: EC50 of peak current response
VALUE_TYPE: pEC50
Answers are plain numbers, as −log10 of the molar value.

Use these answered entries as a reference point.
COMPOUND	STUDY_TARGET	pEC50
O=C(O)COc1ccc(Cl)cc1Cl [2,4-D, 2,4-dichlorophenoxyacetic acid]	PIN8 I51Y (Arabidopsis thaliana, UniProt Q9LFP6, I51Y)	3.19
O=C(O)COc1ccc(Cl)cc1 [4-CPA, 4-chlorophenoxyacetic acid]	PIN8 I51Y (Arabidopsis thaliana, UniProt Q9LFP6, I51Y)	2.98

// query # get_value(readout= pEC50, system= PIN8 I51Y (Arabidopsis thaliana, UniProt Q9LFP6, I51Y)) for O=C(O)Cc1c[nH]c2ccccc12 [IAA, indole-3-acetic acid]
// result 3.26
